# System: MS2 coat protein
# PROTOCOL_NOTES: apparent KD of MS2 coat protein; higher = weaker reporter binding
# CONDITION_NOTES: Eterna round: R107; input ligand: none
Please provide measured apparent KD of MS2 coat protein for the entries that follow.
One number for each entry, in µM.

Example entries begin here.
Consider the sequence UGGCAAGAGGGAAGGAGCGUCAGCAGAGUCACAUGAGGAUCACCCAUGUAGCACGUGGUGUGACAGGUAGGUCGCCCUCUGCCGU [SS-ArgB12] and give its measured apparent KD of MS2 coat protein.
0.0151

Request: ACCUGUACGAAAAGUGCAGGACAUGGUAAACGAGGACCGGUACGGCCGCCACUCGAAGAAAACAAGUGGAUCACCCUUGUCCAUG [TrypAS 4 #AlternativeMS2 #Zipper #StaticStem]
0.622

Request: GACAUGAGGAUCACCCAUGUUUGCUAUGAAGGAGCGUCGGAAAUGACAGGUAGGUCGCAUAGUAGACCUUGUAUUUCGUGUGUUU [#01 Exclusion - Arginine A]
0.0108

Request: GGCACGUACGGAAGGAGCGACUGUUCGACGUGGGUACAUGAGGAUCACCCAUGUCUCCGCAGUCAGGUAGGUCGCCGUACGUGCC [EAB NP+V+V2 #21 +-Same Structure]
0.0427

Request: UGGUACAUGAGGAUCACCCAUGUUCCAGAUACCAGCGUCCCGGUGCGCCCUUGGCAGCUGGUGGUACAUGAGGAUCACCCAUGUG [Exclusion Theophylline A GF14]
0.0402

Request: ACGCUGAUUGAUUACAAUCAGCGAAAAGAUACCAGUGGGUAAUCCCACCCUUGGCAGCUUAAAUCUGAGGAUCACCCAGGUGGUA [TheoAS 19 #MS2Right #BothOrNeither #AlternativeMS2]
0.253

API: the following record is the query input.
Consider the sequence ACGUCCAGGUUAAUCGUGGGCAUGGUCGAUACCAGUAUUUUAAUCUACCCUUGGCAGCGACAUGAGGAUCACCCAUGUGCGAUGA [XTheo A #16] and give its measured apparent KD of MS2 coat protein.
0.0164
